The reader will find reported Activity at 133 nM Antibody Concentration (% Survival Inhibition), Average values listed item by item below.
biological target: KDR (human, UniProt P35968 20-1356); experiment: cell-based or functional assay
Sequence (P35968 20-1356): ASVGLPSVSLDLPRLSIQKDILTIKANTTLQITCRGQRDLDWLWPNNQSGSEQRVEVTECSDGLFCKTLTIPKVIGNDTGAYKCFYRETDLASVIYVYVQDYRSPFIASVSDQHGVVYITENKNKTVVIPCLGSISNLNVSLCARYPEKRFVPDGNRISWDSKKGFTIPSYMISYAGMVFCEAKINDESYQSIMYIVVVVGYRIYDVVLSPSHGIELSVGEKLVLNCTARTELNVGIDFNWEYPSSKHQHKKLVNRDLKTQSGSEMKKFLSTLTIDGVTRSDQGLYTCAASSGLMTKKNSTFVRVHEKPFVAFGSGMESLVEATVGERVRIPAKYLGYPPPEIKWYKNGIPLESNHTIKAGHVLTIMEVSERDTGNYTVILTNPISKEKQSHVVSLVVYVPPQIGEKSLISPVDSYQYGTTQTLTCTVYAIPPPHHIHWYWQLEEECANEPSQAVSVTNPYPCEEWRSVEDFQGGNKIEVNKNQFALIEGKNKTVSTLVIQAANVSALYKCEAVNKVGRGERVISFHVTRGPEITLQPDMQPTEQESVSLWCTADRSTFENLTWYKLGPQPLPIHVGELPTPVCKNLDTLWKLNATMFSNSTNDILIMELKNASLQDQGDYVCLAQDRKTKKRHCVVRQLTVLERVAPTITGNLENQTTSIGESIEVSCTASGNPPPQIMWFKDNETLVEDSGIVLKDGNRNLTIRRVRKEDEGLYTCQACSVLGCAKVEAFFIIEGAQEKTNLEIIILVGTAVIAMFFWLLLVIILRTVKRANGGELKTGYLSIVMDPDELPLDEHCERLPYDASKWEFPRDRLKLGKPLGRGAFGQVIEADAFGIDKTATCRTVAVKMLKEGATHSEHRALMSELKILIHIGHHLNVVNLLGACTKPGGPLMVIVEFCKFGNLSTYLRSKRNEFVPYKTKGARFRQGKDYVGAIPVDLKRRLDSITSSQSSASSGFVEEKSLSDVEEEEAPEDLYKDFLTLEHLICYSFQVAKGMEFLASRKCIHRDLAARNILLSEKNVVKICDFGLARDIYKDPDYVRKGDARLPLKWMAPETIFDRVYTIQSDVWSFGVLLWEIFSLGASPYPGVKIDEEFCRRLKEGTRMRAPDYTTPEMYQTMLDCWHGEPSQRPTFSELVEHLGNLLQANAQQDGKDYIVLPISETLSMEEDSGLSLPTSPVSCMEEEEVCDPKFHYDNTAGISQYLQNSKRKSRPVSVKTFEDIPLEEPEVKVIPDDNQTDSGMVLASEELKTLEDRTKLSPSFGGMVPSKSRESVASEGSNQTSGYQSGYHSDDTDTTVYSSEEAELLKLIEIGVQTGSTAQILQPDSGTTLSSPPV
The figure you give is taken to be in %; do not add the unit.

[[record]]
binder = "21H9 (antibody, V domains shown) VH: QVPLVESGGGVVQPGRSLRLSCAASGFTFSSYGMHWVRQAPGKGLEWVAVIWYDGSNKYYADSVQGRFTISRDNSKNTLYLQMNSLRAEDTAVYYCARGVTMVRGLIIARYYYGLDVWGQGTTVTVSS VL: DIVMTQTPLSSPVTFGQPASISCRSSQSLVHSDGNTYLSWLQQRPGQPPRLLIYKISNRFFGVPDRFSGSGAGTDFTLKISRVEAEDVGLYYCMQSTQFPLTFGGGTKVEIK"
output_unit = "%"
experimental_value = -18

[[record]]
binder = "33E1 (antibody, V domains shown) VH: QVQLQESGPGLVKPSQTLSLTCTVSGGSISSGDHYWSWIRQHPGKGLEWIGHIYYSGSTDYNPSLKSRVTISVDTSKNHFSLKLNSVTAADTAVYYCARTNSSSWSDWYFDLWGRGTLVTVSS VL: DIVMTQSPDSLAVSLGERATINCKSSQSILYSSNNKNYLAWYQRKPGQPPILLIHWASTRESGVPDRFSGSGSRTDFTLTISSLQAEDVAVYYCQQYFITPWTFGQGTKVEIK"
output_unit = "%"
experimental_value = 92


Input: Requested field: Activity at 133 nM Antibody Concentration (% Survival Inhibition), Average. Item: 29F7 (antibody, V domains shown) VH: QVQLVQSGAEVKKPGASVKVSCKASGYTFTSYDINWVRQATGQGLEWMGWMNPNSGKTGYAQKFQGRVTMTRSTSISTAYMELSSLRSEDTAVYYCARGGYSNLGWFDPWGQGTLVTVSS VL: DIQMTQSPSSVFASVGDRVTITCRASQGISTWLAWYQQKPGKAPKFLIYAASSLQSGVPSRFSGSGSGTDFTLTISSLQPDDFATYYCQQANNFPFTFGPGTKVDIK
Output: -12

Origin of values: patent US20100260765A1
